Data origin, for the record: patent US20080234188A1

Would you mind telling me the reported MIC E. coli UB1005 of each entry?
system: E. coli UB1005; assay type: cell-based, Escherichia coli; details: UB1005
Where a SMILES comes first, the peptide text is derived from it.
Hi! Could you send only the number? It should be in µM, unit omitted.

Read the entry C[C@H](NC(=O)[C@H](C)NC(=O)[C@H](Cc1ccccc1)NC(=O)[C@H](C)NC(=O)[C@H](C)NC(=O)[C@H](Cc1c[nH]c2ccccc12)NC(=O)[C@H](C)NC(=O)[C@H](C)NC(=O)[C@H](Cc1ccccc1)NC(=O)[C@H](C)NC(=O)[C@H](C)NC(=O)[C@H](CCCCN)NC(=O)[C@H](CCCCN)NC(=O)[C@H](CCCCN)NC(=O)[C@H](CCCCN)NC(=O)[C@H](CCCCN)NC(=O)[C@@H](N)CCCCN)C(N)=O [F17(K6), KKKKKKAAFAAWAAFAA-NH2] (H-KKKKKKAAFAAWAAFAA-NH2; N-terminus assumed) and write its reported MIC E. coli UB1005.
1

Read the entry C[C@H](NC(=O)[C@H](C)NC(=O)[C@H](Cc1c[nH]c2ccccc12)NC(=O)[C@H](C)NC(=O)[C@H](C)NC(=O)[C@H](Cc1c[nH]c2ccccc12)NC(=O)[C@H](C)NC(=O)[C@H](C)NC(=O)[C@H](Cc1c[nH]c2ccccc12)NC(=O)[C@H](C)NC(=O)[C@H](C)NC(=O)[C@H](CCCCN)NC(=O)[C@H](CCCCN)NC(=O)[C@H](CCCCN)NC(=O)[C@H](CCCCN)NC(=O)[C@H](CCCCN)NC(=O)[C@@H](N)CCCCN)C(N)=O [Peptide W17-6K, KKKKKKAAWAAWAAWAA-NH2] (H-KKKKKKAAWAAWAAWAA-NH2; N-terminus assumed) and write its reported MIC E. coli UB1005.
1

====

test system: E. coli UB1005; type: cell-based, Escherichia coli; settings: UB1005
Where a SMILES comes first, the peptide text is derived from it.
QUANTITY: MIC E. coli UB1005 (µM)
Hi! Could you send only the number? It should be in µM, unit omitted.

Read the entry C[C@H](NC(=O)[C@H](C)NC(=O)[C@H](Cc1ccccc1)NC(=O)[C@H](C)NC(=O)[C@H](C)NC(=O)[C@H](Cc1ccccc1)NC(=O)[C@H](C)NC(=O)[C@H](C)NC(=O)[C@H](Cc1ccccc1)NC(=O)[C@H](C)NC(=O)[C@H](C)NC(=O)[C@H](CCCCN)NC(=O)[C@H](CCCCN)NC(=O)[C@H](CCCCN)NC(=O)[C@H](CCCCN)NC(=O)[C@H](CCCCN)NC(=O)[C@@H](N)CCCCN)C(N)=O [Peptide 3F17-6K, KKKKKKAAFAAFAAFAA-NH2] (H-KKKKKKAAFAAFAAFAA-NH2; N-terminus assumed) and write its reported MIC E. coli UB1005.
2

Read the entry C[C@H](NC(=O)[C@H](C)NC(=O)[C@H](CCCCN)NC(=O)[C@H](CCCCN)NC(=O)[C@@H](N)CCCCN)C(=O)N[C@@H](C)C(=O)N[C@@H](Cc1ccccc1)C(=O)N[C@@H](C)C(=O)N[C@@H](C)C(=O)N[C@@H](Cc1c[nH]c2ccccc12)C(=O)N[C@@H](C)C(=O)N[C@@H](C)C(=O)N[C@@H](Cc1ccccc1)C(=O)N[C@@H](C)C(=O)N[C@@H](CCCCN)C(=O)N[C@@H](CCCCN)C(=O)N[C@@H](CCCCN)C(N)=O [Peptide F17, KKKAAAFAAWAAFAKKK-NH2] (H-KKKAAAFAAWAAFAKKK-NH2; N-terminus assumed) and write its reported MIC E. coli UB1005.
32

Read the entry C[C@H](NC(=O)[C@H](C)NC(=O)[C@H](C)NC(=O)[C@H](Cc1c[nH]c2ccccc12)NC(=O)[C@H](Cc1ccccc1)NC(=O)[C@H](C)NC(=O)[C@H](C)NC(=O)[C@H](C)NC(=O)[C@H](C)NC(=O)[C@H](CCCCN)NC(=O)[C@H](CCCCN)NC(=O)[C@H](CCCCN)NC(=O)[C@H](CCCCN)NC(=O)[C@H](CCCCN)NC(=O)[C@@H](N)CCCCN)C(=O)N[C@@H](C)C(=O)N[C@@H](Cc1ccccc1)C(N)=O [KAFW, KKKKKKAAAAFWAAAAF-NH2] (H-KKKKKKAAAAFWAAAAF-NH2; N-terminus assumed) and write its reported MIC E. coli UB1005.
2
